Some compounds, each annotated with its measured IRF reporter.
System: RAW-Dual (murine macrophage reporter line)
Experiment: IRF reporter (Lucia luciferase) activity fold change vs agonist alone; higher = enhanced IRF activity
Details: modulator concentration 10 µM; agonist: LPS 0.1 ug/mL
Recorded Endpoint: IRF reporter

1) CCN(CC)Cc1cc(Nc2ccnc3cc(Cl)ccc23)ccc1O.Cl.Cl.O.O; 1.22
2) O=C(O)CCC(=O)c1ccc(-c2ccccc2)cc1; 0.984
3) CCC(=O)Nc1ccc(S(=O)(=O)N2CCC(Oc3ncnc(CC)c3F)C2)c(C)c1 (stereo unspecified); 1.24
4) Cc1nc2sccn2c(=O)c1CCN1CCC(=C(c2ccc(F)cc2)c2ccc(F)cc2)CC1; 1.12
5) O=C(CSc1nc[nH]n1)NC(c1ccccc1)c1ccccc1; 1.33
6) COc1ccc(-c2cc(CNC(=O)c3c(F)cccc3F)no2)cc1; 1.4
